Tested on: VchCAST RNA-guided transposition machinery (E. coli BL21(DE3) host, lacZ target)
PROCEDURE_DETAILS: relative integration efficiency (T-RL orientation) vs wild-type transposon end (log2 (normalized fold change)); transposon end mutated: right end (5 bp flank + 75 bp right end); higher = more efficient transposition
MEASURE_NAME: relative integration efficiency (log2)
# respond with the number and nothing more

Consider the worked cases shown below.
input: # relative integration efficiency (log2) lookup, item "ACATTTGTTGATACAACCCGAAAATGATAATTACACCCATAAATTGATAATTATCACACCCATAAATTGATATTGCCTCTGATCATAGTCAGACCAACATTGCTACGACCCGTATTCGCACCGACAC"
output: -3.8

input: # relative integration efficiency (log2) lookup, item "ACATTTCTCGATACAACCATAAAATGATAATTACACCCATAAATGGATCATTATCACACCCAATTTAACTATAACGCTCTGATCATAGTCAGACCAACATTGCTACGACCCGTATTCGCACCGACAC"
output: -2.3

***
input: # relative integration efficiency (log2) lookup, item "ACATTTGTTGATACAACCATAAAATGATAATTAATAATTATTTATAATCACCCATAAATTGATAATTATCAACAAACGCCCGGTCGCGGTACTCTGATCATAGTCAGACCAACATTGCTACGACCCG"
output: -3.08

input: # relative integration efficiency (log2) lookup, item "ACATTTGTTGATACAACCATAAAATGATAATTAATAATTATTTATAATCACACCCATAAATTGATAATTATCACACCCATAAATTGATATTGCCTCTGATCATAGTCAGACCAACATTGCTACGACC"
output: -3.38

input: # relative integration efficiency (log2) lookup, item "ACATTTGTTGATACAACCATAAGTTGATATTTTCACCCATAAATTGATATTGCTCACAACCATAAAATGATAATTACTCTGATCATAGTCAGACCAACATTGCTACGACCCGTATTCGCACCGACAC"
output: -0.631
